Biological target: TetR-Y42A Y42A;C68S;C88N;C121T;C144S;internal_change (UniProt P04483)
Experiment: ITC
Settings: ITC: 20 mM potassium phosphate pH 7.4, 50 mM NaCl, 25 C; EMSA: 50 mM Tris-HCl pH 8.0, 10 mM MgCl2, 25 mM NaCl, 25 ug/ml yeast tRNA, room temperature; SEC …
quantity.measured: Kd (µM)
Answers are plain numbers, in µM.

Entry GGCCGGAGAAUGUUAUGGCGCGAAAGCGCAGAGAAAACCGGUC [TetR-binding aptamer K1] ; Kd = 13.9
